Tested on: colo320 colorectal cancer tumor model
CONDITION_DESCRIPTION: 45 mg/kg once a week for four weeks; Table 8
Where a SMILES comes first, the peptide text is derived from it. The star is where a group is joined. NEt(2-(20S-CPT-7-yl)ethyl) = CCN(CCc1c2c(nc3ccccc13)-c1cc3c(c(=O)n1C2)COC(=O)[C@]3(O)CC)*; X4 = CCCN(CCc1c2c(nc3ccccc13)-c1cc3c(c(=O)n1C2)COC(=O)[C@]3(O)CC)*; X7 = CC[C@@]1(O)C(=O)OCc2c1cc1n(c2=O)Cc2c-1nc1ccccc1c2CCN(C)*; Propanoyl(3-maleimido) = O=C1C=CC(=O)N1CCC(=O)*; PEG6 = NCCOCCOCCOCCOCCOCCOCCC(=O)O
Recorded Mouse weight (%) values for a group of compounds are listed next.

Example compounds with recorded Mouse weight (%):
compound="CCCN(CCc1c2c(nc3ccccc13)-c1cc3c(c(=O)n1C2)COC(=O)[C@]3(O)CC)C(=O)[C@H](CC(C)C)NC(=O)[C@H](CC(N)=O)NC(=O)[C@H](C)NC(=O)[C@H](C)NC(=O)CCOCCOCCOCCOCCOCCOCCNC(=O)CCN1C(=O)C=CC1=O [MI-6PEG-AANL-D3] ({Propanoyl(3-maleimido)-PEG6}-AANL-X4)" reading=+18%
compound="CCN(CCc1c2c(nc3ccccc13)-c1cc3c(c(=O)n1C2)COC(=O)[C@]3(O)CC)C(=O)[C@H](CC(C)C)NC(=O)[C@H](CC(N)=O)NC(=O)[C@H](C)NC(=O)[C@H](C)NC(=O)CCOCCOCCOCCOCCOCCOCCNC(=O)CCN1C(=O)C=CC1=O [MI-6PEG-AANL-D2] ({Propanoyl(3-maleimido)-PEG6}-AANL-{NEt(2-(20S-CPT-7-yl)ethyl)})" reading=+19%

Kindly consider the entry below.
*Q* Any idea what Mouse weight (%) came out for CC[C@@]1(O)C(=O)OCc2c1cc1n(c2=O)Cc2c-1nc1ccccc1c2CCN(C)C(=O)[C@H](CC(C)C)NC(=O)[C@H](CC(N)=O)NC(=O)[C@H](C)NC(=O)[C@H](C)NC(=O)CCOCCOCCOCCOCCOCCOCCNC(=O)CCN1C(=O)C=CC1=O [MI-6PEG-AANL-D1] ({Propanoyl(3-maleimido)-PEG6}-AANL-X7) on colo320 colorectal cancer tumor model?
*A* +16%

* * *

System: A549 (non-small cell lung cancer)
ASSAY_PROTOCOL: cells
Type: cell-based
CONDITION_DESCRIPTION: CCK8, 48 h; Table 1
Where a SMILES comes first, the peptide text is derived from it. The star is where a group is joined. NEt(2-(20S-CPT-7-yl)ethyl) = CCN(CCc1c2c(nc3ccccc13)-c1cc3c(c(=O)n1C2)COC(=O)[C@]3(O)CC)*; Belotecan = CC[C@@]1(O)C(=O)OCc2c1cc1n(c2=O)Cc2c-1nc1ccccc1c2CCN(C(C)C)*; X8 = CC[C@@]1(O)C(=O)OCc2c1cc1n(c2=O)Cc2c-1nc1ccccc1c2CCN(C1CCCC1)*; X1 = CC[C@@]1(O)C(=O)OCc2c1cc1n(c2=O)Cc2c-1nc1ccccc1c2CCN(C1CCC1)*; X4 = CCCN(CCc1c2c(nc3ccccc13)-c1cc3c(c(=O)n1C2)COC(=O)[C@]3(O)CC)*; Propanoyl(3-maleimido) = O=C1C=CC(=O)N1CCC(=O)*; PEG6 = NCCOCCOCCOCCOCCOCCOCCC(=O)O
EXPERIMENTAL_ENDPOINT: IC50 A549 (non-small cell lung cancer)

*Q* So what's the measured IC50 A549 (non-small cell lung cancer) for this one? CCCN(CCc1c2c(nc3ccccc13)-c1cc3c(c(=O)n1C2)COC(=O)[C@]3(O)CC)C(=O)CNC(=O)[C@H](CC(N)=O)NC(=O)[C@H](C)NC(=O)[C@H](C)NC(=O)CCOCCOCCOCCOCCOCCOCCNC(=O)CCN1C(=O)C=CC1=O [MI-6PEG-AANG-D3] ({Propanoyl(3-maleimido)-PEG6}-AANG-X4)
*A* 3.41 µg/mL

*Q* So what's the measured IC50 A549 (non-small cell lung cancer) for this one? CC[C@@]1(O)C(=O)OCc2c1cc1n(c2=O)Cc2c-1nc1ccccc1c2CCN(C(=O)CNC(=O)[C@H](CC(N)=O)NC(=O)[C@H](C)NC(=O)[C@H](C)NC(=O)CCOCCOCCOCCOCCOCCOCCNC(=O)CCN1C(=O)C=CC1=O)C1CCC1 [MI-6PEG-AANG-D7] ({Propanoyl(3-maleimido)-PEG6}-AANG-X1)
*A* 1.89 µg/mL

*Q* So what's the measured IC50 A549 (non-small cell lung cancer) for this one? CCN(CCc1c2c(nc3ccccc13)-c1cc3c(c(=O)n1C2)COC(=O)[C@]3(O)CC)C(=O)CNC(=O)[C@H](CCCCN)NC(=O)[C@H](C)NC(=O)[C@H](C)NC(=O)CCOCCOCCOCCOCCOCCOCCNC(=O)CCN1C(=O)C=CC1=O [MI-6PEG-AAKG-D2] ({Propanoyl(3-maleimido)-PEG6}-AAKG-{NEt(2-(20S-CPT-7-yl)ethyl)})
*A* 1.32 µg/mL

*Q* So what's the measured IC50 A549 (non-small cell lung cancer) for this one? `CCCNCCc1c2c(nc3ccccc13)-c1cc3c(c(=O)n1C2)COC(=O)[C@]3(O)CC`
*A* 0.026 µg/mL

*Q* So what's the measured IC50 A549 (non-small cell lung cancer) for this one? CC[C@@]1(O)C(=O)OCc2c1cc1n(c2=O)Cc2c-1nc1ccccc1c2CCN(C(=O)CNC(=O)[C@H](Cc1ccccc1)NC(=O)CNC(=O)CNC(=O)CCOCCOCCOCCOCCOCCOCCNC(=O)CCN1C(=O)C=CC1=O)C1CCC1 [MI-6PEG-GGFG-D7] ({Propanoyl(3-maleimido)-PEG6}-GGFG-X1)
*A* 1.32 µg/mL

*Q* So what's the measured IC50 A549 (non-small cell lung cancer) for this one? CC[C@@]1(O)C(=O)OCc2c1cc1n(c2=O)Cc2c-1nc1ccccc1c2CCN(C(=O)CNC(=O)[C@H](Cc1ccccc1)NC(=O)CNC(=O)CNC(=O)CCOCCOCCOCCOCCOCCOCCNC(=O)CCN1C(=O)C=CC1=O)C(C)C [MI-6PEG-GGFG-Belotecan] ({Propanoyl(3-maleimido)-PEG6}-GGFG-Belotecan)
*A* 3.61 µg/mL

*Q* So what's the measured IC50 A549 (non-small cell lung cancer) for this one? CC[C@@]1(O)C(=O)OCc2c1cc1n(c2=O)Cc2c-1nc1ccccc1c2CCN(C(=O)CNC(=O)[C@H](CC(N)=O)NC(=O)[C@H](C)NC(=O)[C@H](C)NC(=O)CCOCCOCCOCCOCCOCCOCCNC(=O)CCN1C(=O)C=CC1=O)C1CCCC1 [MI-6PEG-AANG-D8] ({Propanoyl(3-maleimido)-PEG6}-AANG-X8)
*A* 2.51 µg/mL

*Q* So what's the measured IC50 A549 (non-small cell lung cancer) for this one? `CC[C@@]1(O)C(=O)OCc2c1cc1n(c2=O)Cc2c-1nc1ccccc1c2CCNC1CCCC1`
*A* 0.016 µg/mL

* * *

Test system: sarcoma SJSA-1 tumor model
ASSAY_PROTOCOL: Efficacy in animal model of sarcoma SJSA-1, 30 mg/kg once a week for two weeks (Example 40)
Assay type: in vivo, BALB/c mice
CONDITION_DESCRIPTION: 30 mg/kg once a week for two weeks; Day 1
Where a SMILES comes first, the peptide text is derived from it. The star is where a group is joined. NEt(2-(20S-CPT-7-yl)ethyl) = CCN(CCc1c2c(nc3ccccc13)-c1cc3c(c(=O)n1C2)COC(=O)[C@]3(O)CC)*; X6 = CCCCCN(CCc1c2c(nc3ccccc13)-c1cc3c(c(=O)n1C2)COC(=O)[C@]3(O)CC)*; X4 = CCCN(CCc1c2c(nc3ccccc13)-c1cc3c(c(=O)n1C2)COC(=O)[C@]3(O)CC)*; Propanoyl(3-maleimido) = O=C1C=CC(=O)N1CCC(=O)*; PEG6 = NCCOCCOCCOCCOCCOCCOCCC(=O)O
Recorded SJSA-1 (sarcoma tissue) mean tumor volume (mm^3) Day 1 values for a group of compounds are listed next.
The response must be a number in mm^3 with no trailing unit.

Example compounds with recorded SJSA-1 (sarcoma tissue) mean tumor volume (mm^3) Day 1:
compound="CCCN(CCc1c2c(nc3ccccc13)-c1cc3c(c(=O)n1C2)COC(=O)[C@]3(O)CC)C(=O)[C@H](CC(C)C)NC(=O)[C@H](CC(N)=O)NC(=O)[C@H](C)NC(=O)[C@H](C)NC(=O)CCOCCOCCOCCOCCOCCOCCNC(=O)CCN1C(=O)C=CC1=O [MI-6PEG-AANL-D3] ({Propanoyl(3-maleimido)-PEG6}-AANL-X4)" study_system="sarcoma SJSA-1 tumor model" reading=137.17
compound="CCCCCN(CCc1c2c(nc3ccccc13)-c1cc3c(c(=O)n1C2)COC(=O)[C@]3(O)CC)C(=O)CNC(=O)[C@H](CC(N)=O)NC(=O)[C@H](C)NC(=O)[C@H](C)NC(=O)CCOCCOCCOCCOCCOCCOCCNC(=O)CCN1C(=O)C=CC1=O [MI-6PEG-AANG-D4] ({Propanoyl(3-maleimido)-PEG6}-AANG-X6)" study_system="sarcoma SJSA-1 tumor model" reading=131.57
compound="CCN(CCc1c2c(nc3ccccc13)-c1cc3c(c(=O)n1C2)COC(=O)[C@]3(O)CC)C(=O)[C@H](CC(C)C)NC(=O)[C@H](CC(N)=O)NC(=O)[C@H](C)NC(=O)[C@H](C)NC(=O)CCOCCOCCOCCOCCOCCOCCNC(=O)CCN1C(=O)C=CC1=O [MI-6PEG-AANL-D2] ({Propanoyl(3-maleimido)-PEG6}-AANL-{NEt(2-(20S-CPT-7-yl)ethyl)})" study_system="sarcoma SJSA-1 tumor model" reading=136.59

Kindly consider the entry below.
*Q* So what's the measured SJSA-1 (sarcoma tissue) mean tumor volume (mm^3) Day 1 for this one? CCCN(CCc1c2c(nc3ccccc13)-c1cc3c(c(=O)n1C2)COC(=O)[C@]3(O)CC)C(=O)CNC(=O)[C@H](CC(N)=O)NC(=O)[C@H](C)NC(=O)[C@H](C)NC(=O)CCOCCOCCOCCOCCOCCOCCNC(=O)CCN1C(=O)C=CC1=O [MI-6PEG-AANG-D3] ({Propanoyl(3-maleimido)-PEG6}-AANG-X4)
*A* 132.12
